# Tested on: SK-BR-3
# assay procedure: normalised response (% of control), CellTiter-Glo; higher = more viable cells (100 = DMSO, 0 = benzethonium chloride kill control)
# applied conditions: incubation time: 72 h
Catalogue of molecules with associated normalised response
metric name: normalised response (%)

>>> value_measured("Cc1ccc(C(=O)N(CCCN)[C@@H](c2oc3cc(Cl)ccc3c(=O)c2Cc2ccccc2)C(C)C)cc1 (100 nM)")
91.9
>>> value_measured("CO[C@H]1/C=C\\C=C(/C)C(=O)NC2=CC(=O)C(NCCN(C)C)=C(C[C@@H](C)C[C@H](OC)[C@H](O)[C@@H](C)/C=C(\\C)[C@@H]1OC(N)=O)C2=O [Alvespimycin] (1000 nM)")
36
>>> value_measured("COc1cc([C@@H]2c3cc4c(cc3[C@@H](O[C@@H]3O[C@@H]5CO[C@@H](C)O[C@H]5[C@H](O)[C@H]3O)[C@H]3COC(=O)[C@H]23)OCO4)cc(OC)c1O [Etoposide] (10000 nM)")
15.8
>>> value_measured("CC(C)Cn1cnc2c(N)nc3ccccc3c21 [Imiquimod] (2500 nM)")
106
>>> value_measured("NC(=O)Nc1cc(-c2cccc(F)c2)sc1C(=O)N[C@H]1CCCNC1 [AZD7762] (1000 nM)")
12
>>> value_measured("O=C(CCCCCCC(=O)Nc1ccc([C@H]2O[C@@H](CSc3nc(-c4ccccc4)c(-c4ccccc4)o3)C[C@@H](c3ccc(CO)cc3)O2)cc1)NO [Tubacin] (10000 nM)")
45.4
>>> value_measured("CS(=O)(=O)c1ccc(C2=C(c3ccccc3)C(=O)OC2)cc1 [Rofecoxib] (10000 nM)")
106

Where do the numbers come from? From the supplement of paper PMC4862054.
